Cited source: ChEMBL document CHEMBL1201862

Each entry below carries its reported GI50.
system: NCI-H23; assay: NCI tumour cell line growth inhibition, 48 h
Calls of active or inactive are those of the source. No stated cut-off is given here; in the data, active = GI50 up to about 1.1 µM and inactive = higher.

Solved entries (count: 3):
{"compound": "CCCSc1ccc2[nH]c(/N=C/c3ccccc3)cc2c1", "GI50": "41.7 µM (inactive)"}
{"compound": "COc1cc(OC)cc(N(C)Cc2cnc3nc(N)nc(N)c3c2C)c1", "GI50": "1.25 µM (inactive)"}
{"compound": "CN1c2ccccc2N(C(=O)c2ccccc2)C(CC(=O)O)c2cccn21 (centres undefined)", "GI50": "> 100 µM (inactive)"}

Record CCc1cccc(C(C)C)c1NC(=O)C(=O)C1C(=O)NC(=O)NC1=O , field GI50: > 100 µM (inactive)

Reported GI50 ( CCN(CC)CCCn1c(=O)c2ccccc2n2c3c(=O)n(C)c(=O)n(C)c3nc12 ) = 4.67 µM (inactive)

Short answer for N=C(N)NCCCC(NC(=O)c1cccc2c(=O)c3ccccc3[nH]c12)C(=O)O (centres undefined) : GI50 was > 100 µM (inactive)

In plain terms, CCN(CC)CCn1ncc2c(N)ncnc21 has a documented GI50 of > 100 µM (inactive)

For this compound ( CC(=O)OCC1OC(OCCCCCCO)C(OC(C)=O)C(OC(C)=O)C1OC(C)=O (centres undefined) ), measured GI50 is > 100 µM (inactive)

Record COc1cc(C(=O)O[C@@H]2[C@@H](OC(=O)c3cc(OC)c(OC)c(OC)c3)[C@@H](OC)O[C@@H]3CO[C@@H](c4ccccc4)O[C@@H]23)cc(OC)c1OC . Reported GI50: > 100 µM (inactive)
